Values from patent US5319099A

System: IL-1 production in THP-1 cells
Assay: Inhibitory Activity on IL-1 Production caused by The Stimulation of LPS in THP-1 Cells
Format: cell-based
Details: Homo sapiens; THP-1 cells, LPS 10 μg/ml, 24 hours, RIA of IL-1 β; read-out: IC50 THP-1 IL-1
pIC50: −log10 of the molar value.
measuredProperty: pIC50

chemicalstructure=CN(O)C(=O)N1CCC(=Cc2cc(C(C)(C)C)c(O)c(C(C)(C)C)c2)C1=O targetdesc="IL-1 production in THP-1 cells" measuredproperty=pIC50 measured=4.47
chemicalstructure=CC(C)(C)c1cc(C=C2CCN(C(=O)NO)C2=O)cc(C(C)(C)C)c1O targetdesc="IL-1 production in THP-1 cells" measuredproperty=pIC50 measured=4.60
chemicalstructure=CC(C)(C)c1cc(C=C2CCN(C(N)=O)C2=O)cc(C(C)(C)C)c1O targetdesc="IL-1 production in THP-1 cells" measuredproperty=pIC50 measured=4.70
